Measured values drawn from patent US20230416248A1 for this set.

measured.on: BRM (Homo sapiens)
Construct: made in house; host or cells: High Five insect cells
test.name: ATPase catalytic activity of BRM, ADP-Glo in vitro biochemical assay
measurement.conditions: ATPase catalytic activity, ADP-Glo; 30 nM BRM, 400 μM ATP
Reported pIC50 values for the following compounds.
The quantity pIC50 is defined as the negative base-10 logarithm of the molar concentration.

Worked cases, pIC50 given:
                                   compound         measured_on  numeric_value
0  CC1CCc2ccc(-c3ccc4cnc(CNC(=O)c5ccc6c(c5)S(=O)(=O)CCOC6)cc4n3)nc2O1 (stereo not shown)  BRM (Homo sapiens)           6.76
1  O=C(NCc1cc2nc(N3CCOc4cc(C5CC5)cnc43)ccc2cn1)c1ccc2c(c1)S(=O)(=O)CCOC2  BRM (Homo sapiens)           8.24

Query: Provide the reported pIC50 (system: BRM (Homo sapiens)) for COc1ccc2c(c1)CCN2c1ccc2cnc(CNC(=O)c3ccc4c(c3)S(=O)(=O)CCOC4)cc2n1
Reply: 6.64

Query: Provide the reported pIC50 (system: BRM (Homo sapiens)) for COCc1cc2c(nc1C)N(c1ccc3cnc(CNC(=O)c4ccc5c(c4)S(=O)(=O)CCOC5)cc3n1)CCC2
Reply: 7.65

Query: Provide the reported pIC50 (system: BRM (Homo sapiens)) for C[C@H]1COCc2ccc(C(=O)NCc3cc4nc(-c5cccc(C6CC6)n5)ccc4cn3)cc2S1(=O)=O
Reply: 7.87

Query: Provide the reported pIC50 (system: BRM (Homo sapiens)) for COCCn1cc2c(-c3ccc4cnc(CNC(=O)c5ccc6c(c5)S(=O)(=O)CCOC6)cc4n3)cccc2n1
Reply: 6.25

Query: Provide the reported pIC50 (system: BRM (Homo sapiens)) for C[C@@H]1CN(c2cccc(-c3ccc4cnc(CNC(=O)c5ccc6c(c5)S(=O)(=O)CCO[C@H]6C5CC5)cc4n3)n2)C[C@H](C)O1
Reply: 6.72

* * *

measured.on: BRM (Homo sapiens, UniProt P51531)
Construct: made in house; host or cells: High Five insect cells
Sequence (P51531 whole entry): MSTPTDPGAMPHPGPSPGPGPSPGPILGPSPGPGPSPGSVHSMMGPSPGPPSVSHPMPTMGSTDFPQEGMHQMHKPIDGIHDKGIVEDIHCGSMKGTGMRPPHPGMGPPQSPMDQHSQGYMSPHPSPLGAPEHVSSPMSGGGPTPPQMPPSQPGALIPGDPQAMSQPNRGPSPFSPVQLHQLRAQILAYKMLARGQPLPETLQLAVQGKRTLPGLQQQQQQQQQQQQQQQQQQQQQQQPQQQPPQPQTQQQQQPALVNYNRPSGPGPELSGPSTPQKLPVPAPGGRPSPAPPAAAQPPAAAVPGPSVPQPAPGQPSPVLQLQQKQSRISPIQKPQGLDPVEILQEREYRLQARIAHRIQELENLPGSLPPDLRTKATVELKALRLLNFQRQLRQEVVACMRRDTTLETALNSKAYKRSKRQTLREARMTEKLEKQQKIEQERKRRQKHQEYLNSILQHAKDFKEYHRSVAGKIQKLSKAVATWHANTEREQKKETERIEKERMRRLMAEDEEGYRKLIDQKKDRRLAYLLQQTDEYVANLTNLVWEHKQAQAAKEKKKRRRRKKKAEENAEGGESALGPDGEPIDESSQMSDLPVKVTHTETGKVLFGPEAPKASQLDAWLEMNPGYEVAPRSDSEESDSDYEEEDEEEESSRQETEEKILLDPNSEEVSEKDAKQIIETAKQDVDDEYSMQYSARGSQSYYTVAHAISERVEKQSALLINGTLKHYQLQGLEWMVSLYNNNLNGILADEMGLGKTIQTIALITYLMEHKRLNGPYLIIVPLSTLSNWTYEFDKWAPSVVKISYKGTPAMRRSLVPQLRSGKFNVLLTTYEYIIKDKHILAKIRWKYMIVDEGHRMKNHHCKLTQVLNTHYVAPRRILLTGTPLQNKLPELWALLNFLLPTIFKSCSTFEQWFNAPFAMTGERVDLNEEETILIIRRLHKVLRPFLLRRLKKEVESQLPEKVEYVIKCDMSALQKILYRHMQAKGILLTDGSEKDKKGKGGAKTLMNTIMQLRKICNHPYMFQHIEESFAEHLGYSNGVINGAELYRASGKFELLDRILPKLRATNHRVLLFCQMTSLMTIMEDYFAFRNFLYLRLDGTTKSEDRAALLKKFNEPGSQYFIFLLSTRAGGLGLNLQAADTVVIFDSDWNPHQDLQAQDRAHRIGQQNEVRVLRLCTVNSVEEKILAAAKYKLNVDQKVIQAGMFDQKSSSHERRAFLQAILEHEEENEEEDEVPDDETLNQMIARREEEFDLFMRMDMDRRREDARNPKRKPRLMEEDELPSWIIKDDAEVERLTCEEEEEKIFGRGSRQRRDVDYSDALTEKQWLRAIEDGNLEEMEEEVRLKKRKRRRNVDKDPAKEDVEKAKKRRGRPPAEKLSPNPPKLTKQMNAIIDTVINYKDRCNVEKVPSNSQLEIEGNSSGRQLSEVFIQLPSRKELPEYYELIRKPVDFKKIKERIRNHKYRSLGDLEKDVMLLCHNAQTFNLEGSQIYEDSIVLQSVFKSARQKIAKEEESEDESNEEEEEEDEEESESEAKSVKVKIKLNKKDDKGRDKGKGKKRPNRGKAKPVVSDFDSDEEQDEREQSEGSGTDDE
test.name: ATPase catalytic activity of BRM, ADP-Glo in vitro biochemical assay
measurement.conditions: ATPase catalytic activity, ADP-Glo; 30 nM BRM, 400 μM ATP
pIC50: −log10 of the molar value.
Classification scheme (pIC50): bottom bin: < 7; middle bin: ≥ 7 and < 8; top bin: ≥ 8

Worked examples follow.
In [3]: df
Out[3]:
                                   compound    category
0  C[C@@H]1CN(c2cccc(-c3ccc4nnc(CNC(=O)c5ccc(Cl)c(S(C)(=O)=O)c5)cc4n3)n2)C[C@H](C)O1 [Compound 406]     top bin
1  CC1CN(c2cccc(-c3ccc4cnc(CNC(=O)c5ccc6c(c5)S(=O)(=O)C(C)COC6C)cc4n3)n2)CC(C)O1 (centres unmarked) [Compound 535]  bottom bin
2  O=C(NCc1cc2nc(N3CCCc4cc(F)cnc43)ccc2cn1)c1ccc2c(c1)S(=O)(=O)CCOC2 [Compound 591]  middle bin
3  CO[C@H](C)Cn1ccc2c(-c3ccc4cnc(CNC(=O)c5ccc6c(c5)S(=O)(=O)CCOC6)cc4n3)ccnc21 [Compound 448]  bottom bin

Switching to the query record.
Query: Class label required: CO[C@H]1CCN(c2cccc(-c3ccc4cnc(CNC(=O)c5ccc6c(c5)S(=O)(=O)CCOC6)cc4n3)n2)C[C@@H]1C [Compound 352]
Reply: middle bin

* * *

measured.on: BRM (Homo sapiens)
Construct: made in house; host or cells: High Five insect cells
test.name: ATPase catalytic activity of BRM, ADP-Glo in vitro biochemical assay
measurement.conditions: ratio of BRG1 IC50 to BRM IC50
Description: The ATPase catalytic activity of BRM or BRG-1 was measured by an in vitro biochemical assay using ADP-Glo™ (Promega, V9102). The ADP-Glo™ kinase assay is performed in two steps once the reaction is complete. The first step is to deplete any unconsumed ATP in the reaction. The second step is to convert the reaction product ADP to ATP, which will be utilized by the luciferase to generate luminesce and be detected by a luminescence reader, such as Envision. […]
Note to self: use condition met only for Ratio* readings below 10; a reading exactly at 10 still gets condition not met.

Worked examples follow.
                                   compound         measured_on           category
0  C[C@H]1COCc2ccc(C(=O)NCc3cc4nc(-c5ccnc([C@H]6CC6(F)F)n5)ccc4cn3)cc2S1(=O)=O [Compound 464]  BRM (Homo sapiens)  condition not met
1  O=C(NCc1cc2nc(-c3cccc(N(C4CCOCC4)C4CC4)n3)ccc2cn1)c1ccc2c(c1)S(=O)(=O)CCOC2 [Compound 398]  BRM (Homo sapiens)      condition met
2  CCN1CCN(c2ccc3cnc(CNC(=O)c4ccc5c(c4)S(=O)(=O)CCOC5)cc3n2)c2ncccc21 [Compound 615]  BRM (Homo sapiens)  condition not met

Query: Confirm or reject: Ratio* of Cc1cnc2c(c1)N(C)CCN2c1ccc2cnc(CNC(=O)c3ccc4c(c3)S(=O)(=O)CCOC4)cc2n1 [Compound 618] lies strictly below 10
Reply: condition not met

Query: Confirm or reject: Ratio* of C[C@H]1COCc2ccc(C(=O)NCc3cc4nc(-c5ccnc([C@@H]6CC6(F)F)n5)ccc4cn3)cc2S1(=O)=O [Compound 465] lies strictly below 10
Reply: condition not met

Query: Confirm or reject: Ratio* of CO[C@@H](C)Cn1ccc2c(-c3ccc4cnc(CNC(=O)c5ccc6c(c5)S(=O)(=O)CCOC6)cc4n3)ccnc21 [Compound 449] lies strictly below 10
Reply: condition not met

Query: Confirm or reject: Ratio* of COCCn1ncc2c1CCCN2c1ccc2cnc(CNC(=O)c3ccc4c(c3)S(=O)(=O)CCOC4)cc2n1 [Compound 400] lies strictly below 10
Reply: condition not met

Query: Confirm or reject: Ratio* of CO[C@H]1CCN(c2cccc(-c3ccc4cnc(CNC(=O)c5ccc6c(c5)S(=O)(=O)CCOC6)cc4n3)n2)C[C@@H]1C [Compound 352] lies strictly below 10
Reply: condition met

Query: Confirm or reject: Ratio* of COc1c(-c2ccc3cnc(CNC(=O)c4ccc5c(c4)S(=O)(=O)CCOC5)cc3n2)cccc1C(F)F [Compound 343] lies strictly below 10
Reply: condition met

Query: Confirm or reject: Ratio* of O=C(NCc1cc2nc(-c3cccc(C4CC4)n3)cnc2cn1)c1cc(F)c2c(c1)S(=O)(=O)CCOC2 [Compound 424] lies strictly below 10
Reply: condition not met

Query: Confirm or reject: Ratio* of CO[C@H](C)c1ccc2c(n1)N(c1ccc3cnc(CNC(=O)c4ccc5c(c4)S(=O)(=O)CCOC5)cc3n1)CCC2 [Compound 562] lies strictly below 10
Reply: condition not met

Query: Confirm or reject: Ratio* of C[C@@H]1CN(c2cccc(-c3ccc4cnc(CNC(=O)c5ccc6c(c5)S(=O)(=O)CC[C@H]6C)cc4n3)n2)C[C@H](C)O1 [Compound 490] lies strictly below 10
Reply: condition not met

Query: Confirm or reject: Ratio* of COc1nc(-c2ccc3cnc(CNC(=O)c4cc(F)c5c(c4)S(=O)(=O)[C@@H](C)COC5)cc3n2)ccc1C(F)F [Compound 530] lies strictly below 10
Reply: condition not met

Query: Confirm or reject: Ratio* of CC1CCc2ccc(-c3ccc4cnc(CNC(=O)c5ccc6c(c5)S(=O)(=O)CCOC6)cc4n3)nc2O1 (stereo not drawn) [Compound 529] lies strictly below 10
Reply: condition met

* * *

measured.on: BRM (Homo sapiens)
Construct: made in house; host or cells: High Five insect cells
test.name: ATPase catalytic activity of BRM, ADP-Glo in vitro biochemical assay
measurement.conditions: ATPase catalytic activity, ADP-Glo; 30 nM BRM, 400 μM ATP
Reported pIC50 values for the following compounds.
The quantity pIC50 is defined as the negative base-10 logarithm of the molar concentration.

>>> print(df.to_string())
                                 smiles_str         measured_on  numeric_value
0  C[C@@H]1CN(c2cccc(-c3ccc4cnc(CNC(=O)c5ccc6c(c5)S(=O)(=O)[C@@H](C)CO[C@@H]6C)cc4n3)n2)C[C@H](C)O1  BRM (Homo sapiens)           6.37
1  O=C(NCc1cc2nc(-c3cccc4c3CN(C3COC3)CC4)ccc2cn1)c1ccc2c(c1)S(=O)(=O)CCOC2  BRM (Homo sapiens)           5.40

Query: Quote pIC50 reported for C[C@@H]1CN(c2cccc(-c3ccc4cnc(CNC(=O)c5ccc6c(c5)S(=O)(=O)[C@@H](C)CC6)cc4n3)n2)C[C@H](C)O1 please.
Reply: 6.69

* * *

measured.on: BRM (Homo sapiens)
Construct: made in house; host or cells: High Five insect cells
test.name: ATPase catalytic activity of BRM, ADP-Glo in vitro biochemical assay
measurement.conditions: selectivity ratio BRG1 IC50 / BRM IC50
Would you please tag the item t when its Ratio* (BRG1 IC50 (μM) divided by BRM IC50 (μM)) is 10 or above, and f when it is below?

Worked examples follow.
                                   compound  category
0  C[C@]1(c2cccc(-c3ccc4cnc(CNC(=O)c5ccc6c(c5)S(=O)(=O)CCOC6)cc4n3)n2)CC1(F)F         f
1  O=C(NCc1cc2nc(N3CCCc4cccnc43)ccc2cn1)c1ccc2c(c1)S(=O)(=O)CCOC2         t
2  CC1COCc2ccc(C(=O)NCc3cc4nc(-c5cccc(N6CCC6)n5)ccc4cn3)cc2S1(=O)=O (single isomer, unassigned) [Compound 197]         t
3  COCCc1ccc(C(=O)NCc2cc3nc(-c4cncc(C5CC5)n4)ccc3cn2)cc1S(C)(=O)=O         t
4  CC1OCCS(=O)(=O)c2cc(C(=O)NCc3cc4nc(-c5cccc(N6C[C@@H](C)O[C@@H](C)C6)n5)ccc4cn3)ccc21 (stereo partly shown)         f
5  O=C(NCc1cc2nc(-c3cncc(C4CC4)n3)ccc2cn1)c1cc(Cl)c2c(c1)S(=O)(=O)CCOC2         t

Switching to the query record.
Query: API: above_or_equal(metric=Ratio* (BRG1 IC50 (μM) divided by BRM IC50 (μM)), cutoff=10) for item O=C(NCc1cc2nc(N3CCCc4ccncc43)ccc2cn1)c1ccc2c(c1)S(=O)(=O)CCOC2
Reply: f
